The measurements presented in this section are drawn from patent US20130261077A1.

Test Target: FimH-CRD (Escherichia coli)
Construct: The first 177 amino acids of the FimH protein; thrombin tag (printed as 'fusion protein with thrombin') (cleaved yes); made in house; host or cells: bacteria (pET21b plasmid)
Procedure Summary: Competitive binding assay by fluorescence polarization, assay 1 (compounds prepared by manual serial dilution)
Parameter: Kd
The number alone won't do; follow it with the unit.

Answered examples (2):
{"Smiles Notation": "OC[C@H]1O[C@H](c2cccc(-c3ccc4c(c3)OCCO4)c2)[C@@H](O)[C@@H](O)[C@@H]1O", "Test Target": "FimH-CRD (Escherichia coli)", "Parameter": "Kd", "Reported Result": "7.1 nM"}
{"Smiles Notation": "CNC(=O)c1cc(C(=O)NC)cc(-c2cccc([C@H]3O[C@H](CO)[C@@H](O)[C@H](O)[C@@H]3O)c2)c1", "Test Target": "FimH-CRD (Escherichia coli)", "Parameter": "Kd", "Reported Result": "25.4 nM"}

What does the data say about its Kd? Entry: COc1ccc([C@H]2O[C@H](CO)[C@@H](O)[C@H](O)[C@@H]2O)cc1O
17.2 nM

What does the data say about its Kd? Entry: OC[C@H]1O[C@H](c2cccc(-c3ccccc3)c2)[C@@H](O)[C@@H](O)[C@@H]1O
12.4 nM

* * *

Test Target: FimH-CRD (Escherichia coli, UniProt P08191)
Construct: The first 177 amino acids of the FimH protein; thrombin tag (printed as 'fusion protein with thrombin') (cleaved yes); made in house; host or cells: bacteria (pET21b plasmid)
Sequence (P08191 22-177): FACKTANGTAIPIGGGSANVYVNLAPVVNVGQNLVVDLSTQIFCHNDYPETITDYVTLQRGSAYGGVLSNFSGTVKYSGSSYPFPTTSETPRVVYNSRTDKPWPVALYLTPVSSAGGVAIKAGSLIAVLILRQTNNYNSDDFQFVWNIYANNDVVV
Procedure Summary: Competitive binding assay by fluorescence polarization, assay 2 (compounds prepared by robotics, plates frozen and thawed)
Please respond with MET when measured Kd is strictly beneath 10 nM, and with NOT MET in all other cases.

{"Compound": "O=C(O)c1cccc(COc2ccc(C3O[C@H](CO)[C@@H](O)[C@H](O)[C@@H]3O)cc2)c1 (stereo partly shown)", "Test Target": "FimH-CRD (Escherichia coli, UniProt P08191)", "Answer Label": "NOT MET"}
{"Compound": "OC[C@H]1O[C@H](c2cccc(-c3ccc4[nH]c(C(F)(F)F)nc4c3)c2)[C@@H](O)[C@@H](O)[C@@H]1O", "Test Target": "FimH-CRD (Escherichia coli, UniProt P08191)", "Answer Label": "NOT MET"}
{"Compound": "CNC(=O)c1cc(C#Cc2cccc([C@H]3O[C@H](CO)[C@@H](O)[C@H](O)[C@@H]3O)c2)cc(C(=O)NC)c1", "Test Target": "FimH-CRD (Escherichia coli, UniProt P08191)", "Answer Label": "MET"}
{"Compound": "Cc1nnc(-c2ccc(-c3cccc([C@H]4O[C@H](CO)[C@@H](O)[C@H](O)[C@@H]4O)c3C)cc2)o1", "Test Target": "FimH-CRD (Escherichia coli, UniProt P08191)", "Answer Label": "MET"}
{"Compound": "OC[C@H]1O[C@H](c2cccc(C/C=C/c3ccccc3)c2)[C@@H](O)[C@@H](O)[C@@H]1O", "Test Target": "FimH-CRD (Escherichia coli, UniProt P08191)", "Answer Label": "NOT MET"}

Find out if reported Kd for OC[C@H]1O[C@H](c2cccc(-c3cc4ccccc4s3)c2)[C@@H](O)[C@@H](O)[C@@H]1O is less than 10 nM
NOT MET

Find out if reported Kd for OC[C@H]1OC(c2ccc(OCC3CCOCC3)cc2)[C@@H](O)[C@@H](O)[C@@H]1O (stereo partly shown) is less than 10 nM
NOT MET

Find out if reported Kd for C#Cc1ccc([C@H]2O[C@H](CO)[C@@H](O)[C@H](O)[C@@H]2O)cc1 is less than 10 nM
NOT MET

Find out if reported Kd for OC[C@H]1OC(c2cccc(OCc3ccc(-n4cncn4)cc3)c2)[C@@H](O)[C@@H](O)[C@@H]1O (stereo partly shown) is less than 10 nM
MET

Find out if reported Kd for OC[C@H]1OC(c2ccc(OCc3cccc4cccnc34)cc2)[C@@H](O)[C@@H](O)[C@@H]1O (stereo partly shown) is less than 10 nM
MET

Find out if reported Kd for CNC(=O)c1ccc(COc2cccc(C3O[C@H](CO)[C@@H](O)[C@H](O)[C@@H]3O)c2)cc1 (stereo partly shown) is less than 10 nM
NOT MET

Find out if reported Kd for Cc1nnc(-c2ccc(-c3cccc([C@H]4O[C@H](CO)[C@@H](O)[C@H](O)[C@@H]4O)c3)cc2F)o1 is less than 10 nM
NOT MET

* * *

Test Target: FimH-CRD (Escherichia coli)
Construct: The first 177 amino acids of the FimH protein; thrombin tag (printed as 'fusion protein with thrombin') (cleaved yes)
Procedure Summary: Competitive binding assay by fluorescence polarization, assay 1 (compounds prepared by manual serial dilution)
Parameter: IC50 (nM)
Response body: numeric value in nM, unit text excluded.

Answered examples (2):
{"Smiles Notation": "O=C(Nc1cccnc1)c1cccc([C@H]2O[C@H](CO)[C@@H](O)[C@H](O)[C@@H]2O)c1", "IC50 [nM]": 59}
{"Smiles Notation": "CNC(=O)c1cc(C(=O)NC)cc(-c2cccc([C@H]3O[C@H](CO)[C@@H](O)[C@H](O)[C@@H]3O)c2)c1", "IC50 [nM]": 19}

What does the data say about its IC50? Entry: OC[C@H]1O[C@H](O[C@@H]2[C@H](O)[C@@H](c3cccc(OCC4CCCC4)c3)O[C@H](CO)[C@H]2O)[C@@H](O)[C@@H](O)[C@@H]1O
80

What does the data say about its IC50? Entry: CS(=O)(=O)c1ccc(-c2cccc([C@H]3O[C@H](CO)[C@@H](O)[C@H](O[C@H]4O[C@H](CO)[C@@H](O)[C@H](O)[C@@H]4O)[C@@H]3O)c2)cc1
49

What does the data say about its IC50? Entry: CN(C)c1ccc(NC(=O)Oc2cccc([C@H]3O[C@H](CO)[C@@H](O)[C@H](O)[C@@H]3O)c2)cc1
67

What does the data say about its IC50? Entry: Cc1cnc(NC(=O)c2cccc([C@H]3O[C@H](CO)[C@@H](O)[C@H](O)[C@@H]3O)c2)s1
56

* * *

Test Target: FimH-CRD (Escherichia coli)
Construct: The first 177 amino acids of the FimH protein; thrombin tag (printed as 'fusion protein with thrombin') (cleaved yes)
Procedure Summary: Competitive binding assay by fluorescence polarization, assay 1 (compounds prepared by manual serial dilution)
Please respond with satisfied when measured IC50 is strictly beneath 40 nM, and with not satisfied in all other cases.

Find out if reported IC50 for OC[C@H]1O[C@H](O[C@@H]2[C@H](O)[C@@H](c3cccc(C4CCCCC4)c3)O[C@H](CO)[C@H]2O)[C@@H](O)[C@@H](O)[C@@H]1O is less than 40 nM
not satisfied

Find out if reported IC50 for C=CC[C@H]1O[C@H](CO)[C@@H](O)[C@H](O[C@H]2O[C@H](CO)[C@@H](O)[C@H](O)[C@@H]2O)[C@@H]1O is less than 40 nM
not satisfied

Find out if reported IC50 for COC(=O)c1ccc(Oc2cccc([C@H]3O[C@H](CO)[C@@H](O)[C@H](O)[C@@H]3O)c2)cc1 is less than 40 nM
satisfied

Find out if reported IC50 for O=C(Nc1ccccc1)c1cccc([C@H]2O[C@H](CO)[C@@H](O)[C@H](O)[C@@H]2O)c1 is less than 40 nM
satisfied

Find out if reported IC50 for CNC(=O)c1ccc(-c2cccc([C@H]3O[C@H](CO)[C@@H](O)[C@H](O)[C@@H]3O)c2)cc1 is less than 40 nM
satisfied

Find out if reported IC50 for COc1ccc([C@H]2O[C@H](CO)[C@@H](O)[C@H](O)[C@@H]2O)cc1O is less than 40 nM
not satisfied

Find out if reported IC50 for OC[C@H]1O[C@H](c2cccc(Oc3ccccc3)c2)[C@@H](O)[C@@H](O)[C@@H]1O is less than 40 nM
satisfied

* * *

Test Target: FimH-CRD (Escherichia coli, UniProt P08191)
Construct: The first 177 amino acids of the FimH protein; thrombin tag (printed as 'fusion protein with thrombin') (cleaved yes); made in house; host or cells: bacteria (pET21b plasmid)
Procedure Summary: Competitive binding assay by fluorescence polarization, assay 2 (compounds prepared by robotics, plates frozen and thawed)
Parameter: pKd
By convention, pKd is the negative base-10 log of a molar concentration.

Answered examples (3):
{"Compound": "COCc1cc(-c2cccc([C@H]3O[C@H](CO)[C@@H](O)[C@H](O)[C@@H]3O)c2)ccc1-c1nnc(C)o1", "pKd": 7.83}
{"Compound": "OC[C@H]1O[C@H](c2ccc(F)c(O)c2)[C@@H](O)[C@@H](O)[C@@H]1O", "pKd": 7.51}
{"Compound": "CNC(=O)c1cccc(Oc2cc(C)cc([C@H]3O[C@H](CO)[C@@H](O)[C@H](O)[C@@H]3O)c2)c1", "pKd": 7.97}

For the next question, use this compound.
What does the data say about its pKd? Entry: OC[C@H]1OC(c2ccc(OCc3ccc(F)cc3)cc2)[C@@H](O)[C@@H](O)[C@@H]1O (stereo partly shown)
8.10
